Source listed as patent EP0326331B1.

System: corn rootworm
assay-overview: Mite/insect screen, CRW
Type: in vivo
assay-conditions: percent mortality; CRW rate 12.00 ppm; read-out: CRW RESULTS %
I'd appreciate it if you could supply mortality at 12 ppm values for the items below.
Output spec: scalar in %, unitless text.

**Query** Entry under review: CC(Cc1cccs1)Nc1ccnc2ccccc12 (stereo not drawn) . Reported mortality at 12 ppm?
**Result** 0

**Query** Query: mortality at 12 ppm; subject: Fc1cccc2c(OCCc3cccc4ccccc34)ccnc12
**Result** 0

**Query** Give the measured mortality at 12 ppm of COC(C)CCOc1ccnc2c(F)cccc12 (stereo not drawn) [Example 266, 8-fluoro-4-[3-methoxybutoxy]quinoline] .
**Result** 0

**Query** What value of mortality at 12 ppm has been reported for the following compound? Fc1cccc2c(OCCCC(Br)CBr)ccnc12 (stereo not drawn)
**Result** 0

**Query** I'd like to know its mortality at 12 ppm. The compound in question is Cc1ccc(CCOc2cc(Cl)nc3c(F)cccc23)cc1
**Result** 0

**Query** Which measured mortality at 12 ppm value corresponds to CC(Cc1cccs1)Nc1ccnc2c(F)cccc12 (stereo not drawn) ?
**Result** 0

**Query** Param item = Fc1cccc2c(NCCC3COc4ccccc4O3)ccnc12 (stereo not drawn) ; retrieve measured mortality at 12 ppm.
**Result** 0

**Query** # query: mortality at 12 ppm of entry CC(=O)N(CCC1=CCCCC1)c1ccnc2c(C)cc(C)cc12
**Result** 0

**Query** mortality at 12 ppm for Fc1cccc2c(OCCc3ccc(Cl)cc3)ccnc12 ?
**Result** 0

**Query** Given Fc1cccc2c(NCCc3ccsc3)ccnc12 , state its recorded mortality at 12 ppm.
**Result** 0

**Query** // returns reported mortality at 12 ppm for input OCCc1ccc(CCOc2ccnc3c(F)cccc23)cc1
**Result** 0

**Query** Request the reported mortality at 12 ppm associated with Fc1ccc2c(OCCc3ccc(Cl)cc3)ccnc2c1
**Result** 0

**Query** Reported mortality at 12 ppm, compound Clc1ccc2c(NCCc3ccc4ccccc4c3)ccnc2c1 : ____
**Result** 0

**Query** Any idea what mortality at 12 ppm was measured for Fc1cccc2c(OCCCCCCOc3ccccc3)ccnc12 ?
**Result** 0

**Query** Requested field: mortality at 12 ppm. Item: Fc1ccc2nccc(NCCC3=CCCCC3)c2c1
**Result** 0

**Query** Report mortality at 12 ppm for CC(C)(C)c1ccc(CCOc2ccnc3cc(F)ccc23)cc1 please.
**Result** 0

**Query** Look up mortality at 12 ppm: Cc1ccc(CCOc2ccnc3c(F)cccc23)cc1
**Result** 0

**Query** Name the reported mortality at 12 ppm value associated with the compound c1ccc(CCNc2ccnc3c(NCCc4ccccc4)cccc23)cc1
**Result** 0

**Query** Record request: mortality at 12 ppm value, item Fc1ccc(CCOc2ccnc3cc(Cl)ccc23)c(F)c1
**Result** 0

**Query** Give its mortality at 12 ppm value. Item: Cc1cc(OCCc2ccc(C(C)(C)C)cc2)c2cc(Cl)ccc2n1
**Result** 0

**Query** Report mortality at 12 ppm for Fc1cccc2c(CCCc3cccc(C(F)(F)F)c3)ccnc12 please.
**Result** 0

* * *

Test system: Puccinia recondita tritici (leaf rust)
assay-overview: Test 1 greenhouse foliar spray screen, leaf rust on wheat
Format: in vivo
assay-conditions: Puccinia recondita, foliar, Test 1, foliar spray on wheat; disease control rating at 400 ppm / 100 ppm
What pest or weed control at 400 ppm was measured for each of the following?

**Query** # query: pest or weed control at 400 ppm of entry CC(Cc1ccccc1)Oc1ccnc2c(F)cccc12 (stereo not drawn)
**Result** 20 to 89%

**Query** Endpoint output: pest or weed control at 400 ppm of Clc1ccc(CCOc2ccnc3ccccc23)cc1 [Example 211, 4-[2-(4-chlorophenyl)ethoxy]quinoline] . Value?
**Result** 90 to 100%

**Query** Return reported pest or weed control at 400 ppm; argument: CC(C)(C)c1ccc(CCOc2ccnc3ccccc23)cc1 [Example 262, 4-[2-[4-(t-butyl)phenyl]ethoxy]quinoline]
**Result** 90 to 100%

**Query** What value of pest or weed control at 400 ppm has been recorded for this entry: Fc1cccc2c(OCCc3ccccc3Cl)ccnc12
**Result** 90 to 100%

**Query** What measured pest or weed control at 400 ppm goes with Fc1ccc2c(OCCc3ccc(-c4ccccc4)cc3)ccnc2c1 ?
**Result** 90 to 100%

**Query** Record request: pest or weed control at 400 ppm value, item CC(C)(C)c1ccc(CCCc2ccnc3c(F)cccc23)cc1
**Result** 90 to 100%

**Query** GET /values?readout=pest or weed control at 400 ppm&item= Clc1cccc2c(OCCc3ccccc3)ccnc12
**Result** 90 to 100%

**Query** May I ask what pest or weed control at 400 ppm has been recorded for Clc1cccc2c(NCCc3cccc(Oc4ccccc4)c3)ccnc12 ?
**Result** 90 to 100%

**Query** Consider the compound shown here: Cc1cc(OCCC2CCCCC2)c2c(Cl)ccc(C)c2n1 What is its recorded pest or weed control at 400 ppm?
**Result** 0 to 19%
